Documented glass transition temperature across a set of compounds
Your answer should be a plain number; it is taken to be in °C.

// solved cases for glass transition temperature follow
*C(=O)Nc1ccc(C(c2ccc(NC(=O)c3ccc4c(c3)C(=O)N(c3c(C)cc(-c5cc(C)c(N6C(=O)c7ccc(*)cc7C6=O)c6ccccc56)c5ccccc35)C4=O)cc2)(C(F)(F)F)C(F)(F)F)cc1 (repeat unit) : 250.00
*CC(*)(C)c1nc(N(CCOCCOCCOC)CCOCCOCCOC)nc(N(CCOCCOCCOC)c2ccccc2)n1 (repeat unit) : -75.00

Ask | Identify measured glass transition temperature corresponding to *Oc1ccc(C(C)(C)c2ccc(OC(=O)c3ccc4c(c3)C(C)(c3ccc(C(*)=O)cc3)CC4(C)C)cc2)cc1 (repeat unit)
Reply | 265.00

----------
Documented glass transition temperature across a set of compounds
Answer with the number, then the unit.

// solved cases for glass transition temperature follow
*Oc1ccc(CC(NC(=O)CCc2ccc(OC(=O)COCCOCC(*)=O)cc2)C(=O)OCc2ccccc2)cc1 (repeat unit) : 55.00 °C
*CCCCCCCCOc1cccc(NC(=O)c2ccc(C(=O)Nc3cccc(O*)c3)cc2)c1 (repeat unit) : 122.00 °C
*CCN(CCOC(=O)c1ccc(C(=O)O*)c(OCCC)c1)c1ccc(/N=N/c2nc(C#N)c(C#N)[nH]2)cc1 (repeat unit) : 152.00 °C

Note: attention shifts to another entry.
Ask | Identify measured glass transition temperature corresponding to *CC(*)c1ccc(C(=O)Cc2ccccc2)cc1 (repeat unit)
Reply | 78.00 °C

----------
Note to self: values exactly at 200 °C are MET. So glass transition temperature at or above 200 °C is MET, below is NOT MET.

The following molecules have reported results that may help.
*CC(Cc1cccc2ccccc12)C[Si](*)(C)C (repeat unit) : NOT MET
*Oc1ccc(NC(=O)c2ccc(Oc3ccc(C(C)(C)c4ccc(C(C)(C)c5ccc(Oc6ccc(C(=O)Nc7ccc(Oc8ccc(C(C)(C)c9ccc(*)cc9)cc8)cc7)cc6)cc5)cc4)cc3)cc2)cc1 (repeat unit) : NOT MET
*Oc1ccc(CC(NC(=O)CCc2ccc(OC(=O)CCCCC(*)=O)cc2)C(=O)OC)cc1 (repeat unit) : NOT MET

Ask | Dear colleague, could you confirm whether *CCCCCCCC(=O)OCC1(C)COC(*)OC1 (repeat unit) has glass transition temperature at or above 200 °C?
Reply | NOT MET

Ask | Dear colleague, could you confirm whether *C(=O)c1ccc(Oc2c(C)cc(-c3cc(C)c(Oc4ccc(C(=O)c5ccc6nc(*)ccc6c5)cc4)c(C)c3C)c(C)c2C)cc1 (repeat unit) has glass transition temperature at or above 200 °C?
Reply | MET

Ask | Dear colleague, could you confirm whether *CCCNC(=O)c1ccc(C(=O)NCCCO*)cc1 (repeat unit) has glass transition temperature at or above 200 °C?
Reply | NOT MET

----------
READOUT_LABEL: glass transition temperature (°C)
Your answer should be a plain number; it is taken to be in °C.

// solved cases for glass transition temperature follow
*CCOC(=O)Nc1ccc(CCCc2ccc(NC(=O)O*)cc2)cc1 (repeat unit) : 74.10
*Sc1ccc(Sc2ccc(Sc3ccc4c(c3)C(=O)N(N3C(=O)c5cccc(*)c5C3=O)C4=O)cc2)cc1 (repeat unit) : 242.00
*c1ccc(C(=O)OCCCCCCCCCCOc2ccc(/C=C3\CCCC/C(=C\c4ccc(OCCCCCCCCCCOC(=O)c5ccc(-c6nnc(*)o6)cc5)cc4)C3=O)cc2)cc1 (repeat unit) : 74.00
*C(=O)NCCNC(=O)c1ncn(C)c1* (repeat unit) : 189.00

Ask | Identify measured glass transition temperature corresponding to *C(*)C(=O)OCCC (repeat unit)
Reply | -15.00

Ask | Identify measured glass transition temperature corresponding to *OC1CCC(OC(=O)OCCCCCOC(*)=O)CC1 (repeat unit)
Reply | -5.00

Ask | Identify measured glass transition temperature corresponding to *CC(*)C(=O)Oc1ccccc1 (repeat unit)
Reply | 60.00

Ask | Identify measured glass transition temperature corresponding to *c1ccc(Oc2ccccc2Oc2ccc(N3C(=O)c4ccc(Oc5ccccc5Oc5ccc6c(c5)C(=O)N(*)C6=O)cc4C3=O)cc2)cc1 (repeat unit)
Reply | 193.00

----------
Documented glass transition temperature across a set of compounds
Your answer should be a plain number; it is taken to be in °C.

// solved cases for glass transition temperature follow
*CC(*)(C)C(=O)Oc1ccccc1 (repeat unit) : 110.00
*Oc1ccc(C(c2ccc(OC(=O)c3ccc(OCCCCCCCCCCOc4ccc(C(*)=O)cc4)cc3)cc2)(C(F)(F)F)C(F)(F)F)cc1 (repeat unit) : 89.00
*CC(F)(F)C(F)(F)C(F)(F)COC(=O)c1cccc(C(=O)O*)c1 (repeat unit) : 23.50

Ask | Identify measured glass transition temperature corresponding to *c1ccc(Oc2ccc(C(=O)c3ccc(Oc4ccc(N5C(=O)c6ccc(Oc7ccc8c(c7)C(=O)N(*)C8=O)cc6C5=O)cc4)cc3)cc2)cc1 (repeat unit)
Reply | 243.00

Ask | Identify measured glass transition temperature corresponding to *CC(*)(C)C(=O)OCC1CO1 (repeat unit)
Reply | 68.50

Ask | Identify measured glass transition temperature corresponding to *CC(*)C(=O)Oc1ccc(C(=O)O)cc1 (repeat unit)
Reply | 125.00

Ask | Identify measured glass transition temperature corresponding to *Oc1ccc(OC(=O)c2ccc(C(*)=O)cc2)cc1C1CC2CCC1C2 (repeat unit)
Reply | 267.00

Ask | Identify measured glass transition temperature corresponding to *c1cc(-c2ccc(C(=C3C=C(C(C)(C)C)C(=O)C(C(C)(C)C)=C3)c3cc(C(C)(C)C)c(OC(C)=O)c(C(C)(C)C)c3)cc2)c(*)s1 (repeat unit)
Reply | -4.30

----------
READOUT_LABEL: glass transition temperature (°C)
Your answer should be a plain number; it is taken to be in °C.

// solved cases for glass transition temperature follow
*CCN(*)C(=O)CCCCCC (repeat unit) : 10.00
*c1ccc(Cc2ccc(N3C(=O)c4ccc(OCCN(CCOc5ccc6c(c5)C(=O)N(*)C6=O)c5ccc(/C=C/c6ccc([N+](=O)[O-])cc6)cc5)cc4C3=O)cc2)cc1 (repeat unit) : 160.70
*Oc1ccc2cc(Oc3ccc(S(=O)(=O)c4ccc(*)cc4)cc3)ccc2c1 (repeat unit) : 231.00

Note: attention shifts to another entry.
Ask | Identify measured glass transition temperature corresponding to *Oc1ccccc1C(=O)OC(=O)c1ccccc1OC(=O)CCCCC(*)=O (repeat unit)
Reply | 55.00

----------
Documented glass transition temperature across a set of molecules
Your answer should be a plain number; it is taken to be in °C.

*c1ccc2c(c1)C(=O)N(c1cc(C(F)(F)F)cc(N3C(=O)c4ccc(C(*)(C(F)(F)F)C(F)(F)F)cc4C3=O)c1OC(c1c(F)c(F)c(F)c(F)c1F)c1c(F)c(F)c(F)c(F)c1F)C2=O (repeat unit) : 321.70
*c1ccc(Oc2ccc(Oc3ccc(-n4c(=O)c5ccc6c(=O)n(*)c(=O)c6c5c4=O)cc3)cc2)cc1 (repeat unit) : 292.00

Ask | Identify measured glass transition temperature corresponding to *c1cc(N2C(=O)c3ccc(-c4ccc5c(c4)C(=O)N(*)C5=O)cc3C2=O)ccc1OCC(F)(F)C(F)(F)C(F)(F)F (repeat unit)
Reply | 300.00

Ask | Identify measured glass transition temperature corresponding to *c1ccc2c(c1)C(=O)N(c1ccc(-c3ccc(N4C(=O)c5ccc(C(*)(C(F)(F)F)C(F)(F)F)cc5C4=O)cc3C#N)c(C#N)c1)C2=O (repeat unit)
Reply | 331.00

Ask | Identify measured glass transition temperature corresponding to *C1=C(Cl)C(=O)N(c2ccc(Cc3ccc(N4C(=O)C(Cl)=C(Oc5ccc(C(C)(C)c6ccc(*)cc6)cc5)C4=O)cc3)cc2)C1=O (repeat unit)
Reply | 173.00

Ask | Identify measured glass transition temperature corresponding to *c1cc(N2C(=O)c3ccc(-c4ccc5c(c4)C(=O)N(*)C5=O)cc3C2=O)ccc1OCC(F)(F)C(F)(F)C(F)(F)C(F)(F)C(F)(F)C(F)(F)C(F)(F)C(F)(F)C(F)(F)C(F)(F)F (repeat unit)
Reply | 230.00

Ask | Identify measured glass transition temperature corresponding to *Oc1cccc(Sc2ccc(Oc3ccc4c(c3)C(=O)N(c3cccc(N5C(=O)c6ccc(*)cc6C5=O)c3)C4=O)cc2)c1 (repeat unit)
Reply | 209.00

Ask | Identify measured glass transition temperature corresponding to *C(=O)Nc1ccc2ccccc2c1-c1c(NC(=O)c2ccc3c(c2)C(=O)N(c2ccc(Oc4ccc(N5C(=O)c6ccc(*)cc6C5=O)cc4)cc2)C3=O)ccc2ccccc12 (repeat unit)
Reply | 287.80

Ask | Identify measured glass transition temperature corresponding to *Oc1cccc(Oc2ccc(Oc3ccc4c(c3)C(=O)N(c3ccc(Oc5cccc(Oc6ccc(N7C(=O)c8ccc(*)cc8C7=O)cc6)c5)cc3)C4=O)cc2)c1 (repeat unit)
Reply | 184.00

Ask | Identify measured glass transition temperature corresponding to *c1ccc2c(c1)C(=O)N(c1cc(N3C(=O)c4ccc(S(*)(=O)=O)cc4C3=O)cc(C(F)(F)F)c1)C2=O (repeat unit)
Reply | 310.00

Ask | Identify measured glass transition temperature corresponding to *C1=C(Cl)C(=O)N(c2ccc(Cc3ccc(N4C(=O)C(Cl)=C(Oc5ccc(*)cc5)C4=O)cc3)cc2)C1=O (repeat unit)
Reply | 192.00

These data points were gathered from the PolyMetriX glass transition set.
